Origin of measurements: PubChem BioAssay (NCI)

- experiment-description: NCI Yeast Anticancer Drug Screen. Data for the sgs1 mgt1 strain (AID 161);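 also: 0% = growth of cultures given vehicle only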
- reported-conditions: S. cerevisiae sgs1 mgt1 strain, at 50.0 µM, active compounds read high
- Experimental: Growth inhibition of yeast strains with defined genetic alterations is measured as a screen for potential anti-cancer activity. Selected strains with alterations in DNA damage repair or cell cycle control were exposed to compounds and growth inhibition was measured relative to vehicle treated controls. The strain used in this assay is sgs1 mgt1
The panel holds about 79,000 compounds, 15% with a hit somewhere; the sample as a whole holds those more often.
result-type: growth inhibition (%)
Expressed in %, but write only the number.

{"columns": ["molecule", "growth inhibition / %"],
 "data": [
  ["CC(=O)c1ccc(N2C(=O)CC(NC3CCCCC3)C2=O)cc1 (stereo not drawn)", 9.45]
]}

Look up growth inhibition for this molecule: Cc1ccc(S(=O)(=O)/N=C/[N-][n+]2cccc(C)c2)cc1
4.4

Look up growth inhibition for this molecule: CS(=O)(=O)c1ccc2c(c1)-c1ccc([N+](=O)[O-])cc1C2=O
6.3
